biological target: Cholinesterase (Homo sapiens, UniProt P06276); assay: Inhibition of BuchE (unknown origin) at 10 uM relative to control
Sequence (P06276 whole entry): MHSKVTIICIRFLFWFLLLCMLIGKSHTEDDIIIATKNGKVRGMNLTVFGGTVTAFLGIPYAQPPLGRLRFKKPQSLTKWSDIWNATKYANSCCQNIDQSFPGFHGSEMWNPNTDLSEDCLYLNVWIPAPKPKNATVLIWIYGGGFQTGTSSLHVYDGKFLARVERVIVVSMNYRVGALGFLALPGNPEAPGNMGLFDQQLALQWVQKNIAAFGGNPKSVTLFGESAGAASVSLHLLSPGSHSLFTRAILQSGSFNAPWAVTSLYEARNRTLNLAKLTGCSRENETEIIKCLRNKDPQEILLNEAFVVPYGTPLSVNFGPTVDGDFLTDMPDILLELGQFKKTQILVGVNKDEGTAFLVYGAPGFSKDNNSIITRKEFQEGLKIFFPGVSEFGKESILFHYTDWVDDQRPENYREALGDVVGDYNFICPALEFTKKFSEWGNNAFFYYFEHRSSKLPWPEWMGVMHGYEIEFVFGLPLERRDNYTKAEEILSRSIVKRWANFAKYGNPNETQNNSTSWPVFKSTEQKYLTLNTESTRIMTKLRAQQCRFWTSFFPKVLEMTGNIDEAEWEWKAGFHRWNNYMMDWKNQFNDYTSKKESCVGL
Observable: inhibition (%)
# number only, unit % dropped from output

Exercise: Give the measured inhibition of CC(C)CN(Cc1csc(COc2ccc(F)cc2)n1)C(=O)S(=O)(=O)c1ccc2ccccc2c1 .
Solution: 40.7

Exercise: And for COc1ccc(OCc2nc(CN(CC(C)C)C(=O)c3ccc4c(c3)OCO4)cs2)cc1 ?
Solution: 77.8

Exercise: Request: CCCC(=O)N(Cc1csc(COc2ccc(C)cc2)n1)CC(C)C
Solution: 66

Exercise: What do we get for COc1cccc(C(=O)N(Cc2csc(COc3ccc(C)cc3)n2)CC(C)C)c1 ?
Solution: 91.4

Exercise: And Cc1ccc(OCc2nc(CN(CC(C)C)C(=O)c3ccccc3)cs2)cc1 ?
Solution: 92

Exercise: Moving on to COc1ccc(C(=O)N(Cc2csc(COc3ccc(C)cc3)n2)CC(C)C)cc1
Solution: 32.8

Exercise: Subsequent entry: Cc1ccc(OCc2nc(CN(CC(C)C)C(=O)c3ccccc3C)cs2)cc1
Solution: 75.2

Exercise: Input CC(C)CN(Cc1csc(COc2ccc(Cl)cc2)n1)C(=O)c1ccc2c(c1)OCO2
Solution: 91.2

Exercise: One more compound: Cc1ccc(OCc2nc(CN(CC(C)C)C(=O)c3ccc4c(c3)OCO4)cs2)cc1
Solution: 87.2

Exercise: Cc1ccc(OCc2nc(CN(CC(C)C)C(=O)c3ccccc3Cl)cs2)cc1 ?
Solution: 72.4

Exercise: Try Cc1ccc(OCc2nc(CN(CC(C)C)C(=O)c3cccs3)cs2)cc1 next.
Solution: 82

Exercise: Can you check Cc1ccc(OCc2nc(CN(CC(C)C)C(=O)S(=O)(=O)c3ccccc3)cs2)cc1 next?
Solution: 32.9

Exercise: Would you mind doing Cc1ccc(S(=O)(=O)C(=O)N(Cc2csc(COc3ccc(F)cc3)n2)CC(C)C)cc1 as well?
Solution: 64.4

Exercise: Param item: CN(Cc1csc(COc2ccc(F)cc2)n1)C(=O)c1ccc2c(c1)OCO2
Solution: 31.9

Exercise: Field entry: Cc1ccc(OCc2nc(CN(CC(C)C)C(=O)S(=O)(=O)c3ccc(C)cc3)cs2)cc1
Solution: 38.4

Exercise: Similarly, Cc1ccc(OCc2nc(CN(CC(C)C)C(=O)S(=O)(=O)c3ccc4ccccc4c3)cs2)cc1 ?
Solution: 36.5

Exercise: Now give it for CC(=O)N(Cc1csc(COc2ccc(C)cc2)n1)CC(C)C too.
Solution: 64.8

Exercise: Follow-up item: CC(C)CN(Cc1csc(COc2ccc(C(F)(F)F)cc2)n1)C(=O)c1ccc2c(c1)OCO2
Solution: 65.9

Exercise: What do you get for Cc1ccc(OCc2nc(CN(CC(C)C)C(=O)c3ccccc3F)cs2)cc1 ?
Solution: 86.6

Exercise: Would you kindly repeat that for Cc1ccc(OCc2nc(CN(CC(C)C)C(=O)c3cccc(C)c3)cs2)cc1 ?
Solution: 94.1

Exercise: Do the same for Cc1ccc(OCc2nc(CN(CC(C)C)C(=O)c3cccc(F)c3)cs2)cc1 please
Solution: 78.2

Exercise: Ok, now COCc1nc(CN(CC(C)C)C(=O)c2ccc3c(c2)OCO3)cs1
Solution: 15.3

Exercise: Record: CCC(=O)N(Cc1csc(COc2ccc(C)cc2)n1)CC(C)C
Solution: 55.3

Exercise: Ok, now Cc1ccc(OCc2nc(CN(CC(C)C)C(=O)c3cccc(Cl)c3)cs2)cc1
Solution: 97

Exercise: Same again, this time with Nc1c2c(nc3ccccc13)CCCC2
Solution: 0.07

Exercise: Entry to check: Cc1ccc(OCc2nc(CN(CC(C)C)C(=O)S(=O)(=O)c3cccnc3)cs2)cc1
Solution: 48.3

Exercise: Then CC(C)CN(Cc1csc(COc2ccc(F)cc2)n1)C(=O)c1ccc2c(c1)OCO2 ?
Solution: 96.4

Exercise: # iterate: Cc1ccc(OCc2nc(CN(CC(C)C)C(=O)c3ccc(C)cc3)cs2)cc1
Solution: 92.6

Exercise: What do you get for Cc1ccc(OCc2nc(CN(CC(C)C)C(=O)c3ccc(Cl)cc3)cs2)cc1 ?
Solution: 65.5

Exercise: Subsequent entry: CCCCCC(=O)N(Cc1csc(COc2ccc(C)cc2)n1)CC(C)C
Solution: 86.1

Exercise: Another compound: CC(C)CN(Cc1csc(COc2ccc(F)cc2)n1)C(=O)S(=O)(=O)c1ccccc1
Solution: 55.1

Exercise: Try this compound next: COc1ccccc1C(=O)N(Cc1csc(COc2ccc(C)cc2)n1)CC(C)C
Solution: 26

Exercise: How about Cc1ccc(OCc2nc(CN(CC(C)C)C(=O)c3ccco3)cs2)cc1 ?
Solution: 87.8

Exercise: Let us now turn to Cc1ccc(OCc2nc(CN(CC(C)C)C(=O)c3ccc(F)cc3)cs2)cc1
Solution: 82.2

Exercise: Likewise for Cc1ccc(OCc2nc(CN(CC(C)C)C(=O)c3c(F)cccc3F)cs2)cc1 ?
Solution: 66.4
